Could you please report measured Kd for the items listed next?
# system_name: MAP4K5 (Homo sapiens)
# Sequence (Q9Y4K4 whole entry): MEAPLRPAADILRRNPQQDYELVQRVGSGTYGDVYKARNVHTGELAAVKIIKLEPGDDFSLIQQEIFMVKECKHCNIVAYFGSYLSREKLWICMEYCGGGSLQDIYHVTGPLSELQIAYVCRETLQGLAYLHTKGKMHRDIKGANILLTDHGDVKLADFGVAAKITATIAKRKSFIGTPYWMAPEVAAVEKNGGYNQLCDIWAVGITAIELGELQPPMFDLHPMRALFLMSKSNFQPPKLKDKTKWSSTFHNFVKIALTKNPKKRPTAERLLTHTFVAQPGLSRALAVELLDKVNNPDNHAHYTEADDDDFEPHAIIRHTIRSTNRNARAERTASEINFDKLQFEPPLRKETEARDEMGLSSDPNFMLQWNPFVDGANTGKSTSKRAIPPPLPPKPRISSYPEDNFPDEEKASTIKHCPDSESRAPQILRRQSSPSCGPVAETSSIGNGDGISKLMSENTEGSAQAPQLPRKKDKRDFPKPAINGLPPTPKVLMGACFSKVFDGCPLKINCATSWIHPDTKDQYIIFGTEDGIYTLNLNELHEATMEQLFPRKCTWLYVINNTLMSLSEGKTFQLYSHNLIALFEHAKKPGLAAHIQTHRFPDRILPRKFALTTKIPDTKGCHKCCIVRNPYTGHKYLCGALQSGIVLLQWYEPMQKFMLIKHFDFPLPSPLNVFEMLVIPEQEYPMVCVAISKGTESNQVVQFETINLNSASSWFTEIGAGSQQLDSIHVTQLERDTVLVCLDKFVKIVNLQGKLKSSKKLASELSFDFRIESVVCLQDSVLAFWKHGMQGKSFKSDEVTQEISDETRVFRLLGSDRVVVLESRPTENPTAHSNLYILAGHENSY
# value in µM; strip the unit string

input: What value of measured Kd is listed for CN(C)CC(O)COc1ccc(Nc2ncc([N+](=O)[O-])c(Nc3ccccc3O)n2)cc1.O=C(O)C(F)(F)F (centres unmarked) [TCMDC-141399] ?
output: 2.85

input: Dear colleague, I am looking for the recorded Kd of the following compound: Cl.NCC1(c2nc(-c3ccc(Cl)c(O)c3)c(-c3ccncc3)[nH]2)CCCCC1 [TCMDC-141154]
output: 3.31

====

# system_name: STK38L (Homo sapiens)
# Sequence (Q9Y2H1 whole entry): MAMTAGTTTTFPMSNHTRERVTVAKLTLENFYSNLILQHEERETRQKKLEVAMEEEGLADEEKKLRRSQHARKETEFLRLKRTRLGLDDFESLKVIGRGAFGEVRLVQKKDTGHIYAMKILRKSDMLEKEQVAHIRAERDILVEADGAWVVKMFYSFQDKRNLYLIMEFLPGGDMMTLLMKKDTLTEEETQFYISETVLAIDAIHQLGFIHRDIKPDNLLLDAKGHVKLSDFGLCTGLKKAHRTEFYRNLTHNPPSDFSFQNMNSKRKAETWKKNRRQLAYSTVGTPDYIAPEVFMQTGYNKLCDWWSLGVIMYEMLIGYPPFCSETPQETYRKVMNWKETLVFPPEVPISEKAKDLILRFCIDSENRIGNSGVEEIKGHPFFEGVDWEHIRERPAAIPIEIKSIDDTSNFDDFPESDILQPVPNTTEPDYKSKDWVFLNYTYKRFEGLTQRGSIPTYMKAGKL
# assay_info: biochemical
# condition: read-out: KDapp
value_kind: pKd
Conceptually, pKd converts a concentration in mol/L into minus its log10.

input: Suppose we examine the compound CN1CCN(c2ccc(Nc3ncc(C#N)c(Nc4ccccc4C(N)=O)n3)cc2)CC1.Cl [TCMDC-134116] ; what pKd value has been reported?
output: 6.24

====

value_kind: IC50

input: IC50 of CN(C)CC(O)COc1ccc(Nc2ncc([N+](=O)[O-])c(Nc3ccccc3O)n2)cc1.O=C(O)C(F)(F)F (centres unmarked) [TCMDC-141399] on LIMK2 (Homo sapiens, UniProt P53671)?
output: > 20 µM

input: So what IC50 did Cl.NCC1(c2nc(-c3ccc(Cl)c(O)c3)c(-c3ccncc3)[nH]2)CCCCC1 [TCMDC-141154] get with LIMK2 (Homo sapiens, UniProt P53671)?
output: > 20 µM

====

# system_name: Plasmodium falciparum calcium-dependent protein kinase 1 (CDPK1) (Plasmodium falciparum, UniProt P62344)
# Construct: 6-Histidine (N); made in house
# Sequence (P62344 whole entry): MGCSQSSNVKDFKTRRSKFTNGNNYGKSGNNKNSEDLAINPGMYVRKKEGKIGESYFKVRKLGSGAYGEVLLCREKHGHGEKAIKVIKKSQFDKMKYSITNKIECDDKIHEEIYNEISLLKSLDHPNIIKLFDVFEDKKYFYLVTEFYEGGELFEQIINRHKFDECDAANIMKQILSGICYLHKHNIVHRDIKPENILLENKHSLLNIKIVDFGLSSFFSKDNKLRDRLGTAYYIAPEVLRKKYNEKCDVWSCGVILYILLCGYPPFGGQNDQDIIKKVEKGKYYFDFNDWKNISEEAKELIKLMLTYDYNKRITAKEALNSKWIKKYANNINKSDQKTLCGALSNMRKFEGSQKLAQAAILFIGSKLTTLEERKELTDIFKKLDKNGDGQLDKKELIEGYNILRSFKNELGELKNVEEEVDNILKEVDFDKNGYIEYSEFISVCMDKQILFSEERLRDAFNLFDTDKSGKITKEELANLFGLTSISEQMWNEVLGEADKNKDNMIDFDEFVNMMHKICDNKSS
# assay_info: CDPK1 Kinase-Glo ATP-consumption screen and dose-response
# Format: biochemical
# condition: hits below 1 uM; read-out: CDPK1 IC50
value_kind: pIC50
Notebook: values listed as pIC50 are -log10 of the concentration (mol/L).

input: Name the recorded pIC50 for CN1CCN(CCCNCc2cccc(Nc3nccc(Nc4ccc(Oc5ccccc5)cc4)n3)c2)CC1 [TCMDC-138616] .
output: 6.58

input: What does the data say about its pIC50? Entry: CN(C)CCNCc1ccc(-c2ccc3c(Nc4ccc(Cl)cc4F)ccnc3c2)o1 [TCMDC-138391]
output: 6.43

input: Query: pIC50; subject: CN1CCN(Cc2ccc(-c3ccc4c(Nc5ccc(Cl)cc5F)ccnc4c3)o2)CC1 [TCMDC-138395]
output: 6.39

input: Fill blank: measured pIC50 of the molecule CNC(=O)c1ccccc1Nc1nc(Nc2ccc(N3CCOCC3)cc2)ncc1Cl.Cl [TCMDC-134144] is ____.
output: 6.84

input: Requested read-out: pIC50. Entry: Cc1ccc(Nc2ccnc(Nc3ccc4c(c3)CS(=O)(=O)C4)n2)cc1O.Cl [TCMDC-138484]
output: 6.38

input: # query: pIC50 of entry COc1ccc(CNCC(C)(C)c2nc(-c3ccc(Cl)c(O)c3)c(-c3ccncc3)[nH]2)cc1.Cl [TCMDC-140538]
output: 6.73

input: Give its pIC50 value. Item: Cl.Oc1cccc(Nc2ccnc3cc(-c4ccncc4)ccc23)c1 [TCMDC-138292]
output: 6.05

input: Give its pIC50 value. Item: O=C(NCCN1CCCCC1)c1ccc(Nc2nccc(Nc3ccc(Oc4ccccc4)cc3)n2)cc1 [TCMDC-138608]
output: 6.99
